- System: Klebsiella pneumoniae
- Assay type: cell-based
Bridge positions count the residues as written; N and C are the ends. Square brackets hold non-standard residues; d marks the D form. Peptide text beside a SMILES is read from it. * marks the point of attachment. ξ: configuration not given here. dBip = N[C@H](Cc1ccc(-c2ccccc2)cc1)C(=O)O; X3 = CCCCCCCCN1CCNC[C@H]1C(=O)*; Thr(3ξ) = CC(O)[C@H](N)C(=O)O; Dab = NCC[C@H](N)C(=O)O; Dap = NC[C@H](N)C(=O)O
test_readout: MIC K. pneumoniae 063 (µg/mL)
One number for each entry, in µg/mL.

CCCCCCCCN1CCNC[C@H]1C(=O)N[C@H](C(=O)N[C@@H](CN)C(=O)N[C@H]1CCNC(=O)[C@H]([C@@H](C)O)NC(=O)[C@H](CCN)NC(=O)[C@H](CCN)NC(=O)[C@H](CC(C)C)NC(=O)[C@@H](Cc2ccc(-c3ccccc3)cc2)NC(=O)[C@H](CCN)NC1=O)C(C)O (stereo partly drawn) [Example 30] (X3-[Thr(3ξ)][Dap][Dab][Dab][dBip]L[Dab][Dab]T; lactam 3-C) = 4

Now let's try a different one.
What does the record list as MIC K. pneumoniae 063 for CC(C)CC1CNCC(C(=O)N[C@H](C(=O)N[C@@H](CN)C(=O)N[C@H]2CCNC(=O)[C@H]([C@@H](C)O)NC(=O)[C@H](CCN)NC(=O)[C@H](CCN)NC(=O)[C@H](CC(C)C)NC(=O)[C@@H](Cc3ccc(-c4ccccc4)cc3)NC(=O)[C@H](CCN)NC2=O)C(C)O)C1 (single isomer, unassigned; isomer 2) [Example 4] ? 4

---

- Tested on: Escherichia coli
- Assay type: cell-based
- condition_label: strain 061
test_readout: MIC E. coli 061 (µg/mL)
Numbers only, in µg/mL.

Below, 2 molecules whose answers are already recorded.
CC(C)C[C@@H]1NC(=O)[C@@H](CC2CCCCC2)NC(=O)[C@H](CCN)NC(=O)[C@@H](NC(=O)[C@H](CN)NC(=O)[C@@H](NC(=O)CC(CN)C2CCCCC2)C(C)O)CCNC(=O)[C@H]([C@@H](C)O)NC(=O)[C@H](CCN)NC(=O)[C@H](CCN)NC1=O (single isomer, unassigned; isomer 1) [Example 42] = 8
CC(C)C[C@@H]1NC(=O)[C@@H](CC2CCCCC2)NC(=O)[C@H](CCN)NC(=O)[C@@H](NC(=O)[C@H](CN)NC(=O)[C@@H](NC(=O)CC(CN)Cc2ccccc2)[C@@H](C)O)CCNC(=O)[C@H]([C@@H](C)O)NC(=O)[C@H](CCN)NC(=O)[C@H](CCN)NC1=O (single isomer, unassigned; isomer 1) [Example 58] = 16

Next up:
Fill blank: measured MIC E. coli 061 of the molecule CC(C)C[C@@H]1NC(=O)[C@@H](CC2CCCCC2)NC(=O)[C@H](CCN)NC(=O)[C@@H](NC(=O)[C@H](CCN)NC(=O)[C@@H](NC(=O)CC(CN)Cc2ccccc2)[C@@H](C)O)CCNC(=O)[C@H]([C@@H](C)O)NC(=O)[C@H](CCN)NC(=O)[C@H](CCN)NC1=O (single isomer, unassigned; isomer 1) [Example 66] is ____. 32

---

- Test system: Klebsiella pneumoniae
- Format: cell-based
Bridge positions count the residues as written; N and C are the ends. Square brackets hold non-standard residues; d marks the D form. Peptide text beside a SMILES is read from it. * marks the point of attachment. ξ: configuration not given here. dBip = N[C@H](Cc1ccc(-c2ccccc2)cc1)C(=O)O; X3 = CCCCCCCCN1CCNC[C@H]1C(=O)*; Thr(3ξ) = CC(O)[C@H](N)C(=O)O; X1 = CC(C)CN1CCNC[C@H]1C(=O)*; Dab = NCC[C@H](N)C(=O)O; Dap = NC[C@H](N)C(=O)O
Can you tell me MIC K. pneumoniae 066 for the items I'm about to list?
Numbers only, in µg/mL.

# annotated cases, reported MIC K. pneumoniae 066 shown
CCCCCCCCC1CNCC1C(=O)N[C@H](C(=O)N[C@@H](CCN)C(=O)N[C@H]1CCNC(=O)[C@H]([C@@H](C)O)NC(=O)[C@H](CCN)NC(=O)[C@H](CCN)NC(=O)[C@H](CC(C)C)NC(=O)[C@@H](Cc2ccccc2-c2ccccc2)NC(=O)[C@H](CCN)NC1=O)C(C)O (single isomer, unassigned; isomer 2) [Example 10] = 4
CCCCCCCCN1CCNC[C@H]1C(=O)N[C@H](C(=O)N[C@@H](CCN)C(=O)N[C@H]1CCNC(=O)[C@H]([C@@H](C)O)NC(=O)[C@H](CCN)NC(=O)[C@H](CCN)NC(=O)[C@H](CC(C)C)NC(=O)[C@@H](Cc2ccc(-c3ccccc3)cc2)NC(=O)[C@H](CCN)NC1=O)C(C)O (stereo partly shown) [Example 6] (X3-[Thr(3ξ)][Dab][Dab][Dab][dBip]L[Dab][Dab]T; lactam 3-C) = 0.5
CC(C)C[C@@H]1NC(=O)[C@@H](Cc2ccc(-c3ccccc3)cc2)NC(=O)[C@H](CCN)NC(=O)[C@@H](NC(=O)[C@H](CN)NC(=O)[C@@H](NC(=O)[C@@H]2CNCCN2CC(C)C)C(C)O)CCNC(=O)[C@H]([C@@H](C)O)NC(=O)[C@H](CCN)NC(=O)[C@H](CCN)NC1=O (stereo partly shown) [Example 5] (X1-[Thr(3ξ)][Dap][Dab][Dab][dBip]L[Dab][Dab]T; lactam 3-C) = 8
CC(C)CC(CN)C(=O)N[C@H](C(=O)N[C@@H](CN)C(=O)N[C@H]1CCNC(=O)[C@H]([C@@H](C)O)NC(=O)[C@H](CCN)NC(=O)[C@H](CCN)NC(=O)[C@H](CC(C)C)NC(=O)[C@@H](Cc2ccc(Br)cc2)NC(=O)[C@H](CCN)NC1=O)C(C)O (single isomer, unassigned; isomer 2) [Example 14] = 8
CC(C)CC1CNCC(C(=O)N[C@H](C(=O)N[C@@H](CN)C(=O)N[C@H]2CCNC(=O)[C@H]([C@@H](C)O)NC(=O)[C@H](CCN)NC(=O)[C@H](CCN)NC(=O)[C@H](CC(C)C)NC(=O)[C@@H](Cc3ccc(Br)cc3)NC(=O)[C@H](CCN)NC2=O)C(C)O)C1 (single isomer, unassigned; isomer 2) [Example 12] = 1

State the recorded MIC K. pneumoniae 066 for every item in the following list.
1. CC(C)C[C@@H]1NC(=O)[C@@H](Cc2ccccc2)NC(=O)[C@H](CCN)NC(=O)[C@@H](NC(=O)[C@H](CN)NC(=O)[C@@H](NC(=O)[C@@H]2CNCCN2CC(C)C)C(C)O)CCNC(=O)[C@H]([C@@H](C)O)NC(=O)[C@H](CCN)NC(=O)[C@H](CCN)NC1=O (stereo partly shown) [Example C2, reference compound] (X1-[Thr(3ξ)][Dap][Dab][Dab][dF]L[Dab][Dab]T; lactam 3-C)
2. CC(C)CC(CN)C(=O)N[C@H](C(=O)N[C@@H](CN)C(=O)N[C@H]1CCNC(=O)[C@H]([C@@H](C)O)NC(=O)[C@H](CCN)NC(=O)[C@H](CCN)NC(=O)[C@H](CC(C)C)NC(=O)[C@@H](Cc2ccc(-c3ccccc3)cc2)NC(=O)[C@H](CCN)NC1=O)C(C)O (single isomer, unassigned; isomer 1) [Example 15]

[32, 64]
